tested on: Escherichia coli TOP10; experiment: shrunken log2 fold change of peptide-encoding DNA abundance (4.5 h post-induction vs induction); higher = less antimicrobial activity (less host growth inhibition); settings: time post-induction: 4.5 h; library: site-saturation at positions 5, 18, 19, 20
Readout: shrunken log2 fold change
# output: bare number, no unit

Some sequences with known shrunken log2 fold change results, for comparison:
>>> value_measured("RRIRWRPPRLPRPRPRPPTYPRP")
-0.104
>>> value_measured("RRIRPRPPRLPRPRPRPQKEPRP")
0.0431
>>> value_measured("RRIRFRPPRLPRPRPRPGPIPRP")
0.218
>>> value_measured("RRIRCRPPRLPRPRPRPNKKPRP")
0.0294

Endpoint output: shrunken log2 fold change of RRIRLRPPRLPRPRPRPTMNPRP . Value?
-0.362

Quick one: shrunken log2 fold change of RRIRHRPPRLPRPRPRPFHWPRP ?
-0.0742

Can you share its shrunken log2 fold change? I mean this sequence: RRIRCRPPRLPRPRPRPFLEPRP
-0.472

Reported shrunken log2 fold change, sequence RRIRLRPPRLPRPRPRPHRWPRP : ____
-0.0172

I would be grateful if you could share the reported shrunken log2 fold change for RRIRVRPPRLPRPRPRPLRMPRP .
0.191

----------
tested on: Escherichia coli TOP10; assay: shrunken log2 fold change of peptide-encoding DNA abundance (4.5 h post-induction vs induction); higher = less antimicrobial activity (less host growth inhibition); settings: time post-induction: 4.5 h; library: site-saturation at positions 5, 18, 19, 20
Readout: shrunken log2 fold change
Form field (numeric): enter value without unit.

>>> value_measured("RRIRIRPPRLPRPRPRPPSMPRP")
-0.206
>>> value_measured("RRIRGRPPRLPRPRPRPHIKPRP")
-0.0279
>>> value_measured("RRIRMRPPRLPRPRPRPFTIPRP")
-0.386
>>> value_measured("RRIRTRPPRLPRPRPRPNPQPRP")
0.125

Data request, read-out shrunken log2 fold change, for RRIRYRPPRLPRPRPRPGDKPRP
-0.288

I am curious: what shrunken log2 fold change value has been reported for RRIRLRPPRLPRPRPRPQVLPRP ?
-0.0429

----------
tested on: Escherichia coli TOP10; test: shrunken log2 fold change of peptide-encoding DNA abundance (4.5 h post-induction vs induction); higher = less antimicrobial activity (less host growth inhibition); conditions: time post-induction: 4.5 h; library: site-saturation at positions 5, 18, 19, 20
shrunken log2 fold change class ranges: lo: < -0.1; mid: ≥ -0.1 and < 0.08; hi: ≥ 0.08

Here's what some known entries look like.
>>> group("RRIRIRPPRLPRPRPRPFNGPRP")
"lo"
>>> group("RRIRWRPPRLPRPRPRPIKEPRP")
"mid"
>>> group("RRIRFRPPRLPRPRPRPWRGPRP")
"hi"
>>> group("RRIRKRPPRLPRPRPRPHHYPRP")
"lo"
>>> group("RRIRDRPPRLPRPRPRPCRFPRP")
"mid"

Band for RRIRPRPPRLPRPRPRPFGAPRP ?
mid

Please classify: RRIRFRPPRLPRPRPRPYMNPRP
lo

Band for RRIRKRPPRLPRPRPRPFTWPRP ?
hi

Place this sequence in its band: RRIRIRPPRLPRPRPRPIVNPRP
lo

----------
tested on: Escherichia coli TOP10; experiment: shrunken log2 fold change of peptide-encoding DNA abundance (4.5 h post-induction vs induction); higher = less antimicrobial activity (less host growth inhibition); conditions: time post-induction: 4.5 h; library: site-saturation at positions 5, 18, 19, 20
Label T when shrunken log2 fold change is at or above 0.02; otherwise label F.

Completed entries (count: 4):
>>> group("RRIRGRPPRLPRPRPRPWNHPRP")
"F"
>>> group("RRIRIRPPRLPRPRPRPISVPRP")
"F"
>>> group("RRIRMRPPRLPRPRPRPMPGPRP")
"T"
>>> group("RRIRWRPPRLPRPRPRPVYSPRP")
"F"

Please turn your attention to the following entry.
Decide: is the reported value of shrunken log2 fold change for RRIRPRPPRLPRPRPRPDCWPRP equal to or greater than 0.02?
T

----------
tested on: Escherichia coli TOP10; test: shrunken log2 fold change of peptide-encoding DNA abundance (4.5 h post-induction vs induction); higher = less antimicrobial activity (less host growth inhibition); conditions: time post-induction: 4.5 h; library: site-saturation at positions 5, 18, 19, 20
Recorded shrunken log2 fold change, one value per entry.
No unit in the answer, only the number.

Observe how each entry below is paired with its result.
>>> value_measured("RRIRHRPPRLPRPRPRPHPDPRP")
-0.206
>>> value_measured("RRIRSRPPRLPRPRPRPSAQPRP")
0.198
>>> value_measured("RRIRFRPPRLPRPRPRPVKEPRP")
-0.0554

What measured shrunken log2 fold change goes with RRIRVRPPRLPRPRPRPHQIPRP ?
0.12

# get_value(readout='shrunken log2 fold change', item= RRIRMRPPRLPRPRPRPGRCPRP )
1.02

What does the data say about its shrunken log2 fold change? Entry: RRIRDRPPRLPRPRPRPRRIPRP
0.0214

----------
test system: Escherichia coli TOP10; assay: shrunken log2 fold change of peptide-encoding DNA abundance (4.5 h post-induction vs induction); higher = less antimicrobial activity (less host growth inhibition); settings: time post-induction: 4.5 h; library: site-saturation at positions 5, 18, 19, 20
Readout: shrunken log2 fold change
The answer should be written as a number, with no unit following it.

>>> value_measured("RRIRARPPRLPRPRPRPTLLPRP")
0.286

For the sequence shown here, RRIRARPPRLPRPRPRPVDPPRP , give the reported shrunken log2 fold change.
0.291

Sample RRIRFRPPRLPRPRPRPIRNPRP — what was its shrunken log2 fold change?
-0.0537

State the recorded shrunken log2 fold change for this entry: RRIRGRPPRLPRPRPRPFYCPRP
-0.0638

Using the record for RRIRGRPPRLPRPRPRPRMYPRP , report its shrunken log2 fold change.
0.0954

Name the reported shrunken log2 fold change value associated with the sequence RRIRTRPPRLPRPRPRPNMNPRP
-0.864

Which shrunken log2 fold change value belongs to RRIRGRPPRLPRPRPRPLGHPRP ?
0.595

For the sequence RRIRMRPPRLPRPRPRPHWMPRP , what shrunken log2 fold change is on record?
-0.137

Form field: reported shrunken log2 fold change of RRIRTRPPRLPRPRPRPKNVPRP
0.0149

----------
Below, each of the sequences is paired with its reported shrunken log2 fold change value.
system: Escherichia coli TOP10; assay: shrunken log2 fold change of peptide-encoding DNA abundance (4.5 h post-induction vs induction); higher = less antimicrobial activity (less host growth inhibition); conditions: time post-induction: 4.5 h; library: site-saturation at positions 5, 18, 19, 20

>>> value_measured("RRIRCRPPRLPRPRPRPKYVPRP")
-0.394
>>> value_measured("RRIRRRPPRLPRPRPRPSTSPRP")
0.0625
>>> value_measured("RRIRVRPPRLPRPRPRPSSYPRP")
-0.139
>>> value_measured("RRIRLRPPRLPRPRPRPFHMPRP")
-0.16
>>> value_measured("RRIRGRPPRLPRPRPRPILQPRP")
0.621

May I ask what shrunken log2 fold change has been recorded for RRIRQRPPRLPRPRPRPHPSPRP ?
-0.462

----------
tested on: Escherichia coli TOP10; assay: shrunken log2 fold change of peptide-encoding DNA abundance (4.5 h post-induction vs induction); higher = less antimicrobial activity (less host growth inhibition); details: time post-induction: 4.5 h; library: site-saturation at positions 5, 18, 19, 20
Readout: shrunken log2 fold change
Keep it simple and answer with nothing but the number.

Please look up its shrunken log2 fold change: RRIRFRPPRLPRPRPRPVKFPRP
-0.0322

Param item = RRIRWRPPRLPRPRPRPAMSPRP ; retrieve measured shrunken log2 fold change.
0.403

Could you share which shrunken log2 fold change value was measured for RRIRLRPPRLPRPRPRPRMAPRP ?
0.39

For the sequence RRIRFRPPRLPRPRPRPVYMPRP , what shrunken log2 fold change is on record?
-0.969

# query: shrunken log2 fold change of entry RRIRRRPPRLPRPRPRPLAQPRP
0.498

Record request: shrunken log2 fold change value, item RRIRLRPPRLPRPRPRPFYQPRP
-0.161

Find the recorded shrunken log2 fold change belonging to RRIRNRPPRLPRPRPRPQCCPRP and report it.
-0.0308

Which shrunken log2 fold change value is on record for RRIRHRPPRLPRPRPRPKDHPRP ?
-0.274

----------
tested on: Escherichia coli TOP10; assay: shrunken log2 fold change of peptide-encoding DNA abundance (4.5 h post-induction vs induction); higher = less antimicrobial activity (less host growth inhibition); settings: time post-induction: 4.5 h; library: site-saturation at positions 5, 18, 19, 20;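 also: peptides expressed intracellularly from a pBAD plasmid library in pooled LB shake-flask culture, induced with 0.3% L-arabinose, DNA abundance read by NGS, three biological replicates, DESeq2 with apeglm shrinkage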
1 means recorded shrunken log2 fold change is 0.03 or above; 0 means it is below 0.03.

Sample answers from the record:
>>> group("RRIRFRPPRLPRPRPRPARWPRP")
1
>>> group("RRIRDRPPRLPRPRPRPNCHPRP")
0
>>> group("RRIRNRPPRLPRPRPRPRLWPRP")
0
>>> group("RRIRMRPPRLPRPRPRPEAWPRP")
1
>>> group("RRIRCRPPRLPRPRPRPAYEPRP")
0
>>> group("RRIRPRPPRLPRPRPRPKVNPRP")
0
>>> group("RRIRRRPPRLPRPRPRPDIIPRP")
0
>>> group("RRIRFRPPRLPRPRPRPLLIPRP")
0
>>> group("RRIRLRPPRLPRPRPRPSIHPRP")
0
>>> group("RRIRRRPPRLPRPRPRPFKTPRP")
0

Could you verify whether the entry RRIRNRPPRLPRPRPRPSHSPRP shows shrunken log2 fold change of no less than 0.03?
0

Identify whether the reported shrunken log2 fold change of the following sequence is 0.03 or greater: RRIRFRPPRLPRPRPRPEQHPRP
1

Item RRIRKRPPRLPRPRPRPNFPPRP with shrunken log2 fold change of 0.03 or above?
1

Does shrunken log2 fold change meet or surpass 0.03 for RRIRVRPPRLPRPRPRPMMHPRP ?
0

Say whether RRIRGRPPRLPRPRPRPLLGPRP shows shrunken log2 fold change of 0.03 or more.
1

Is the recorded value of shrunken log2 fold change equal to or greater than 0.03 for this sequence? RRIRSRPPRLPRPRPRPIECPRP
0

For this sequence, is measured shrunken log2 fold change 0.03 or higher? RRIRWRPPRLPRPRPRPVHVPRP
1

Entry RRIRMRPPRLPRPRPRPFLQPRP : is its shrunken log2 fold change no less than 0.03?
0

# check: shrunken log2 fold change of RRIRVRPPRLPRPRPRPCFLPRP is greater than or equal to 0.03
0

Form field: shrunken log2 fold change at least 0.03? Entry: RRIRTRPPRLPRPRPRPAEVPRP
0

Assess whether reported shrunken log2 fold change for RRIRARPPRLPRPRPRPHPIPRP sits at 0.03 or higher.
1

Is shrunken log2 fold change at least 0.03? Consider RRIRNRPPRLPRPRPRPIMTPRP
0

# check: shrunken log2 fold change of RRIRLRPPRLPRPRPRPWFGPRP is greater than or equal to 0.03
0

API: above_or_equal(metric=shrunken log2 fold change, cutoff=0.03) for item RRIRARPPRLPRPRPRPMMEPRP
1

# check: shrunken log2 fold change of RRIRKRPPRLPRPRPRPIAQPRP is greater than or equal to 0.03
1

# bool: shrunken log2 fold change of RRIRNRPPRLPRPRPRPQFSPRP >= 0.03
0

Could you tell me if the measured shrunken log2 fold change of RRIRSRPPRLPRPRPRPWGPPRP reaches 0.03 or more?
1

I'd appreciate it if you could say whether RRIRRRPPRLPRPRPRPHNWPRP has shrunken log2 fold change at least equal to 0.03.
0

Check if shrunken log2 fold change >= 0.03 (inclusive). Item: RRIRQRPPRLPRPRPRPWWHPRP
0

Please check the record RRIRGRPPRLPRPRPRPHWTPRP and state if its shrunken log2 fold change is at or above 0.03.
0

// inclusive: shrunken log2 fold change at least 0.03? input: RRIRSRPPRLPRPRPRPACYPRP
0
